# credit: patent US5162361A

- test.name: In vitro toxicity to the cell (LD50)
- Format: cell-based
- test.context: rat macrophages
assay.readout: CC50

1. c1cc(C2=NCCN2)ccc1OCCCCCOc1ccc(C2=NCCN2)cc1
> 100 µM
